Cited source: PubChem BioAssay (NCI)

Exercise: for every item that follows, state its recorded TGI.
Test system: OVCAR-3 ovarian
Test: NCI tumour cell line growth inhibition, 48 h

Solved cases below.
# compound, testedSystem, recordedValue
measured = [
    ("Cc1cc(S(=O)(=O)N=C2Nc3cccc4cccc(c34)N2)c(S)cc1Cl", "OVCAR-3 ovarian", "> 100 µM"),
    ("COC(C)C(O)(C(=O)OCC1=CCN2CCC(O)C12)C(C)(C)O (centres undefined)", "OVCAR-3 ovarian", "> 100 µM"),
    ("CC(C)(C)OC(=O)Nc1ccc2c(c1)C(NC(=O)Nc1cccc(C#N)c1)CC(C)(C)O2 (centres undefined)", "OVCAR-3 ovarian", "> 100 µM"),
]

Now for another entry.
Which TGI is reported for this compound? `CC[C@H](C)[C@H](NC(=O)c1cccn1C)C(=O)N(C)[C@H](C[C@@H](OC(C)=O)c1nc(C(=O)N[C@@H](Cc2ccccc2)C[C@H](C)C(=O)OC)cs1)C(C)C`
0.272 µM

* * *

Tested on: BT-549 breast
Test: NCI tumour cell line growth inhibition, 48 h
property: TGI

For orientation, consider the following solved cases.
# compound, testedSystem, TGI
records = [
    ("CC[C@H](NC(=O)OC(C)(C)C)C(=O)NCP(=O)(OCc1ccc([N+](=O)[O-])cc1)OCc1ccc([N+](=O)[O-])cc1", "BT-549 breast", "> 100 µM"),
    ("COC(=O)N[C@H]1CCc2c(Cl)c(OC)c(OC)c(OC)c2-c2ccc(SC)c(=O)cc21", "BT-549 breast", "1.52 µM"),
    ("CC1(C)N=C(N)N=C(N)N1c1cccc(Cl)c1", "BT-549 breast", "> 100 µM"),
]

Provide reported TGI for each item, in the same order as listed.
1. Cc1ccc(C)c(COCCOCn2cc(N3CCOCC3)c(=O)[nH]c2=O)c1
2. CC(C)=CCc1c(O)cc2oc(-c3ccc(O)cc3O)cc(=O)c2c1O

["> 100 µM", "> 76.2 µM"]

The following compounds each have a reported value; give each one's TGI.
1. CNC(=S)N1CCN(C(C)=O)C1=S
2. C=C1CCC2C3(C)COC(c4ccccc4Cl)OC3CCC2(C)C1/C=C/C1=CCOC1=O (configuration not stated)

51.7 µM
72.9 µM

* * *

I'd be grateful if you could share measured TGI for these entries.
Test system: SR leukemia
Experiment: NCI tumour cell line growth inhibition, 48 h

# compound, property, recordedValue
records = [
    ("CCOC(=O)N1CCN(c2c(N)nc(C)[nH]c2=O)CC1", "TGI", "> 100 µM"),
    ("CCOC(=O)/C=C/c1cccc(F)c1", "TGI", "> 100 µM"),
    ("N#C/C(C(=O)NCc1ccccc1)=C(/N)N1CCCC1", "TGI", "> 100 µM"),
]

Give me TGI for each of these compounds, listed below.
1. Cc1cccc2c1CC(Cc1ccccc1C(=O)O)C2=O (stereo unspecified)
2. N#Cc1cccc(N2C(=O)C3C4C=CC(C3C2=O)C2C(=O)N(c3cccc(C#N)c3)C(=O)C42)c1 (stereo unspecified)
3. CC(C)=C/C(CC(O)(C(F)(F)F)C(F)(F)F)=N\O
4. O=C(Nc1nn(C(=O)c2cccnc2)c(=O)s1)c1ccc(Cl)cc1

["> 100 µM", "49.5 µM", "> 100 µM", "> 100 µM"]

Batch of 4 compounds: report TGI for each.
1. CCc1nc2c(c(N(C)C)c1C(=O)OC)CCc1ccccc1-2
2. O=c1c2cc3ccccc3n2c(=O)c2cc3ccccc3n12
3. COc1ccc(C(=O)/C=C/SC(=NC#N)SC)cc1
4. C=C1C(=O)O[C@H]2C[C@@H]1C(=O)CC(C)CCCC(C)=CCC[C@@]2(C)O (stereo partly specified)

32.9 µM
> 100 µM
19.6 µM
> 25 µM

* * *

Test system: M19-MEL melanoma
Test: NCI tumour cell line growth inhibition, 48 h
property: TGI

Example compounds with recorded TGI:
# compound, recordedValue
data = [
    ("CC(=O)NN1C(=O)C(Cc2ccccc2)c2ccccc21 (centres undefined)", "> 100 µM"),
    ("O=[N+]([O-])c1ccc(-c2csc(=[N+]3CCCCC3)s2)cc1", "> 45.9 µM"),
    ("C1=CCCC=CCC1.C[PH+](C)C.C[PH+](C)C.C[PH+](C)C.[Cl-].[Ir]", "> 100 µM"),
    ("C=C1C(OC(C)=O)CC(OC(C)=O)C2(C)C(OC(C)=O)C(OC(C)=O)C3=C(C)C(OC(=O)/C=C/c4ccccc4)CC(C(OC(C)=O)C12)C3(C)C (centres undefined)", "> 100 µM"),
    ("CC(C)(C)N=NC(C)(C)N=C=O", "> 100 µM"),
    ("CCC(CO)Nc1nc2c(c(=O)n(C)c(=O)n2C)n1CCO (centres undefined)", "> 100 µM"),
    ("COc1cc2cnc3c4cc(OCc5ccccc5)ccc4ccc3c2cc1OC", "> 100 µM"),
    ("O/N=C/c1ccc(O)c(O)c1", "> 100 µM"),
]

Record TGI per entry; entries follow.
1. C=C1C[C@@H]2C[C@@H](C)CC(O)[C@]2(CCCN)C1O (some centres undefined)
2. CC[PH+](CC)CC.[Cl][Au]
3. CNC(=O)CN(CC(=O)O)C(=O)NC
4. COc1cc(/C=N/N=C(\N)NO)c([N+](=O)[O-])cc1OC
5. CC[C@]12C=CCN3CCC4(c5cc([C@@]6(C(=O)OC)CC7CN(CCc8c6[nH]c6ccccc86)CC6CCCCC67)c(OC)cc5N(C)C4[C@](O)(C(=O)OC)C1OC(C)=O)[C@@H]32 (some centres undefined)

> 100 µM
6.56 µM
> 100 µM
> 100 µM
17.6 µM

What TGI value was documented for this compound, CCC1=C(CC2NCCc3ccccc32)CC2c3cc(OC)c(OC)cc3CCN2C1 (centres undefined) ?
29.5 µM

* * *

Test system: NCI-H226 lung
Assay: NCI tumour cell line growth inhibition, 48 h
Classify as follows. Reported TGI greater than or equal to 8 µM: Yes. Reported TGI below: No.

# compound, testedSystem, classification
data = [
    ("CCN(CC)CCCCNc1c2ccc(Cl)cc2nc2ccc(OC)cc12", "NCI-H226 lung", "No"),
    ("O=C[C@@H](CO)O[C@H](C=O)n1cnc2c(=O)[nH]cnc21", "NCI-H226 lung", "Yes"),
    ("N#Cc1c(-c2ccc([N+](=O)[O-])cc2)c(C#N)c(=O)n(NS(=O)(=O)c2ccccc2)c1O", "NCI-H226 lung", "Yes"),
    ("CCN(CC)C(=S)N/N=C(/c1ccccc1)c1ccccn1", "NCI-H226 lung", "No"),
    ("COc1cc2c3c(n(CCCNCCCN)c(=O)c2cc1OC)-c1cc2c(cc1C3=O)OCO2", "NCI-H226 lung", "Yes"),
    ("N#Cc1cccc(C2C3=C(COC3=O)N(CCO)c3cc4c(cc32)OCO4)c1 (stereo not given)", "NCI-H226 lung", "Yes"),
    ("CC1c2[nH]c3ccccc3c2CCN1O (stereo not given)", "NCI-H226 lung", "Yes"),
    ("Cc1cc(O)c(-c2ccc([C@@H](C)CN(C)C)cc2)c2c1[nH]c(=O)c1sccc12", "NCI-H226 lung", "Yes"),
    ("CO[C@@]1(c2ccccc2)O[C@H]2OCCC2[C@H]1c1ccc(Cl)cc1 (stereo not given in full)", "NCI-H226 lung", "Yes"),
]

Check if TGI >= 8 µM (inclusive). Item: `CN(C)CCCNc1nc2ccccc2c2[nH]c3ccccc3c12`
No

* * *

Tested on: MALME-3M melanoma
Assay: NCI tumour cell line growth inhibition, 48 h
property: GI50

# compound, testedSystem, recordedValue
measured = [
    ("Cc1cccc2c1[nH]c(=O)c1c3ccccc3cn21", "MALME-3M melanoma", "8.23 µM"),
]

Give me GI50 for each of these compounds, listed below.
1. C=C(C)[C@@H]1CC[C@]2(C(=O)NS(=O)(=O)c3ccccc3)CC[C@]3(C)[C@H](CC[C@@H]4[C@@]5(C)CC[C@H](OC(=O)NS(=O)(=O)c6ccccc6)C(C)(C)[C@@H]5CC[C@]43C)[C@@H]12
2. COC(=O)N[C@H]1CCc2c(Cl)c(OC)c(OC)c(OC)c2-c2ccc(SC)c(=O)cc21
3. CC1(C)CCC[C@]2(C)c3ccccc3C(=O)CC12 (stereo not given in full)
4. O=C1c2cc3c(cc2-c2c1c1ccc(Cl)cc1c(=O)n2CCCn1ccnc1)OCO3
5. N#CC1=C(N)NC(=O)NC12Nc1ccccc1N2
6. CC(=O)[CH-]C(=O)c1ccccc1.CC(=O)[CH-]C(=O)c1ccccc1.[O-]c1ccc2c(c1)OCO2.[O-]c1ccc2c(c1)OCO2.[Ti+4]

1. 2.09 µM
2. < 0.01 µM
3. 29 µM
4. 0.0647 µM
5. > 100 µM
6. 23.1 µM

// input: 3 compounds below; output: GI50 for each
1. CCN(CC)CCCCNc1c2ccc(Cl)cc2nc2ccc(OC)cc12
2. CCC1=C(CC2NCCc3ccccc32)CC2c3cc(OC)c(OC)cc3CCN2C1 (stereo not given)
3. CO/N=C(\COc1ccc2oc(-c3ccccc3)cc(=O)c2c1)c1ccc(F)cc1

1.54 µM
3.02 µM
30.3 µM
